System: UO-31
Experiment summary: NCI tumour cell line growth inhibition, 48 h
Activity calls are given as the source filed them. Cut-off read from the data, not from the text of the source: active = GI50 up to about 1.1 µM and inactive = higher.
Select the matching outcome among active, inactive

NC(=O)C(N)Cc1ccc(O)cn1 (stereo not drawn) : inactive
C(#C[C@@]12CCC[C@@H]1NCO2)c1ccc2c(c1)OCO2 : inactive
CC1(C(=O)O)CCC[C@@]2(C)C1CC[C@@]1(C)c3cocc3CCC21 (stereo partly drawn) : inactive
COc1ccc(-c2cc(-c3ccc(Cl)cc3)n(C3OC(CO)C(O)C(O)C3O)c(=S)c2C#N)cc1 (stereo not drawn) : inactive
O=C1NC(=S)NC(=O)C1=CC1CC1 : inactive

Challenge: Outcome? `COc1cc(O)c(C(C)=O)c(O)c1`
Response given: inactive

Challenge: And what about the compound CC1(C)COC(C23C4C5C2C2C3C4C52I)=N1 (stereo not drawn) ?
Response given: inactive

Challenge: Follow-up item: Cc1ccc(C(=O)C(C)N)cc1C (stereo not drawn)
Response given: inactive

Challenge: Moving on to the next compound: `C1=N\c2ccc(cc2)/N=C\c2ccc(cc2)OCc2cccc(n2)COc2ccc/1cc2`
Response given: inactive

Challenge: Next up: CCCCCCCCCCCCCC(=O)OCC1OC(OC)C(NC(=O)N(CCCl)N=O)C(O)C1O (stereo not drawn)
Response given: inactive

Challenge: Please answer likewise for COc1cc2c(cc1OC)C1Cc3ccccc3CCN1CC2 (stereo not drawn)
Response given: inactive

Challenge: Okay, and `C/C1=N\[N-]C(=O)c2ccccc2C(=O)N/N=C(\C)c2cccc1n2.O=[N+]([O-])[O-].[Zn+2]` ?
Response given: inactive

Challenge: Another compound: CC(NC(=O)OC(C)(C)C)C(=O)C(N)=O (stereo not drawn)
Response given: inactive

Challenge: Now consider `Clc1cc(Cl)cc(/N=C/C=C/Nc2cc(Cl)cc(Cl)c2)c1` and answer again.
Response given: inactive

---

Recorded GI50, one value per entry.
Tested on: A549
Experiment summary: NCI tumour cell line growth inhibition, 48 h
Activity calls are given as the source filed them. Rule as the data show it: active = GI50 up to about 1.1 µM and inactive = higher.

Below, each entry is followed by its recorded GI50 result.
C=CC1(CCC(Br)C(C)(C)Cl)CO1 (stereo unspecified) : > 10 µM (inactive)
CC(=O)OC1COC(N2C(=O)/C(=N\NC(N)=S)c3cc(Br)ccc32)C(OC(C)=O)C1OC(C)=O (stereo unspecified) : 43.3 µM (inactive)
CCN(CC)C(=S)SC(C(=O)Nc1nnc(-c2ccccc2)o1)c1ccccc1 (stereo unspecified) : 15.3 µM (inactive)
CN1C(=O)C2(C=CC(O)CC2)c2ccccc21 (stereo unspecified) : > 100 µM (inactive)
Clc1cc(Cl)cc(/N=C/C=C/Nc2cc(Cl)cc(Cl)c2)c1 : 18.3 µM (inactive)

Shift focus to the following entry.
Challenge: What does the record list as GI50 for Nc1ccccc1C(=O)C(Br)C(Br)c1ccc2c(c1)OCO2 (stereo unspecified) ?
Response given: 20.6 µM (inactive)

---

Test system: RXF 393
Experiment summary: NCI tumour cell line growth inhibition, 48 h
Activity calls are given as the source filed them. Rule as the data show it: active = GI50 up to about 1.1 µM and inactive = higher.
Measured GI50 by item

COC(=O)C(CCCCN)NC(=O)C(CCCCN)NC(C)=O.Cc1ccc(C(=O)Nc2ccc(S(=O)(=O)O)c3cc(S(=O)(=O)O)cc(S(=O)(=O)O)c23)cc1NC(=O)c1cccc(NC(=O)Nc2cccc(C(=O)Nc3cc(C(=O)Nc4ccc(S(=O)(=O)O)c5cc(S(=O)(=O)O)cc(S(=O)(=O)O)c45)ccc3C)c2)c1 : > 50 µM (inactive)
N#CC(C#N)=C1c2ccccc2C(=NN)c2ccccc21 : 27.5 µM (inactive)

# next compound below
Challenge: Returns the measured GI50 for the input compound. Input: COc1ccc([S+]([O-])Cc2cc(OC)ccc2OC)cc1 (stereo not drawn)
Response given: > 100 µM (inactive)

src = ChEMBL document CHEMBL1201862
